Tested on: HT29 colon
Experiment: NCI-60 one-dose screen, 48 h (100 = growth as untreated, 0 = no growth, -100 = all killed)
Settings: 10 µM unless noted
About 83,000 compounds went through this panel and 20% of them were active in at least one assay; those are over-represented in the sample as a whole. The source made the active and inactive calls. The calls were made as follows: active = growth percent below 10; inactive = the rest.
// values below are reported growth
measuredParameter: growth

1) CNS(=O)(=O)Nc1nccc(Cc2c(C)c3ccc(Oc4ncccn4)cc3oc2=O)c1F | 10.4% (inactive)
2) CC(=O)c1cnc2ccc(-c3cc(Cl)c(O)c(Cl)c3)nc2c1NC1CCC(CN(C)C)CC1 (centres undefined) | 0.58% [2.5 µM] (active)
3) C/C(=N\NC(=O)Cn1c(-c2ccc(S(C)(=O)=O)cc2)nc2ccccc21)c1ccc(Cl)cc1 | 98.3% (inactive)
4) COC(=O)c1[nH]cnc1/N=N/N(C)CCO | 108% (inactive)
5) C=CC(=O)Nc1cc2c(Nc3ccc(F)c(Cl)c3)ncnc2cc1C#CC(C)(C)N1CCN(C)CC1 | -70.4% (active)
6) Nc1ncnc2c1ccn2-c1cccc(NC(=O)c2ccc(N3CCOCC3)c(C(F)(F)F)c2)c1 | 38.2% (inactive)
7) Cc1cc2c(-c3nc4ccccn4c3NC34CC5CC(CC(C5)C3)C4)c(O)c(O)cc2c(O)c1-c1c(C)cc2c(-c3nc4ccccn4c3NC34CC5CC(CC(C5)C3)C4)c(O)c(O)cc2c1O | 14.1% (inactive)
8) c1ccc2c(c1)CCN(NCCN1CCCC1)C2 | 101% (inactive)
9) CN1CC[C@@H](c2c(O)cc(O)c3c(=O)cc(-c4ccccc4Cl)oc23)[C@@H]1CO | -12.6% (active)
